target-system: Human MC1R (Homo sapiens, UniProt Q01726)
Construct: endogenous in cells; host or cells: human melanoma cell line HBL
Sequence (Q01726 whole entry): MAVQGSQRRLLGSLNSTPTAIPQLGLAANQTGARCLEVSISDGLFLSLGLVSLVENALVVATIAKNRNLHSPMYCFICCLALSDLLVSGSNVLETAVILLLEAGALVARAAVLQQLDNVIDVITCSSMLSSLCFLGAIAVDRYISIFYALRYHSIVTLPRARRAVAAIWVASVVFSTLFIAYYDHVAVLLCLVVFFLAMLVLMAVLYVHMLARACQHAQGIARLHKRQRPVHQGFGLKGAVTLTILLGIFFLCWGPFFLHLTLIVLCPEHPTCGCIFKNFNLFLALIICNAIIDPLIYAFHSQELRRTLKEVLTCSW
protocol-description: MCR agonist measurement (cAMP measurement), human MC1R agonist activity in human melanoma cell line HBL
Format: cell-based
condition-notes: Intrinsic Activity; vehicle cAMP = 0%, αMSH at 10^-6 M = 100%; HBL cells
Decide by Human MC1R IA %: equal to or exceeding 90% means true (1), less means false (0).

Prompt: # check: Human MC1R IA % of COC[C@@H]1C[C@@H](c2ccc(C(F)(F)F)cc2N2CCC(C(=O)O)CC2)CN1C(=O)[C@]1(F)CN(C2CCOCC2)C[C@H]1c1ccc(OC)cc1 is greater than or equal to 90%
Completion: true (1)

Prompt: Threshold query (Human MC1R IA % >= 90%) on COc1ccc([C@@H]2CN(C3CCCC3)C[C@@]2(F)C(=O)N2C[C@H](c3ccc(C(F)(F)F)cc3N3CCC(C(=O)O)CC3)C[C@H]2CF)cc1
Completion: false (0)

Prompt: Threshold query (Human MC1R IA % >= 90%) on COc1ccc([C@@H]2CN(C3CCOCC3)C[C@@]2(F)C(=O)N2CC[C@@H](c3ccc(C(F)(F)F)cc3N3CCC(C(=O)O)CC3)C2)cc1
Completion: false (0)

Prompt: Exam item: decide whether the reported Human MC1R IA % for COc1ccc([C@@H]2CN(C(C)(C)C)C[C@@]2(F)C(=O)N2C[C@H](c3ccc(C(F)(F)F)cc3N3CCC(C(=O)O)CC3)[C@@H](C#N)C2)cc1.Cl.Cl is at least 90%.
Completion: true (1)

Prompt: Does the compound COC[C@H]1CN(C(=O)[C@]2(F)CN(C3CCCC3)C[C@H]2c2ccc(OC)cc2)C[C@@H]1c1ccc(C(F)(F)F)cc1N1CCC(C(=O)N2CCC[C@@H]2C(=O)O)CC1 have recorded Human MC1R IA % that is 90% or more?
Completion: false (0)

Prompt: Given the entry COc1ccc([C@@H]2CN(C(C)(C)C)C[C@@]2(F)C(=O)N2CC[C@H](c3ccc(C(F)(F)F)cc3N3CCC(C(=O)O)CC3)C2)cc1.Cl.Cl [Example 286b] , answer whether its Human MC1R IA % meets or surpasses 90%.
Completion: false (0)

Prompt: Form field: Human MC1R IA % at least 90%? Entry: COC[C@H]1CN(C(=O)[C@]2(F)CN([C@H]3CC[C@H](OC)CC3)C[C@H]2c2ccc(OC)cc2)C[C@@H]1c1ccc(C(F)(F)F)cc1N1CCC(C)(C(=O)O)CC1
Completion: true (1)

Prompt: Can COC[C@@H]1C[C@@H](c2ccc(C(F)(F)F)cc2N2CCC(C(=O)O)CC2)CN1C(=O)[C@]1(F)CN(C2CCCC2)C[C@H]1c1ccc(OC)cc1 be said to have Human MC1R IA % at or above 90%?
Completion: true (1)

Prompt: Does the reported Human MC1R IA % for COc1ccc([C@@H]2CN(C3CCN(C(CF)CF)CC3)C[C@@]2(F)C(=O)N2CC[C@@H](c3ccc(C(F)(F)F)cc3N3CCC(C(=O)O)CC3)C2)cc1 fall at or above the 90% mark?
Completion: true (1)

----------
target-system: Human MC1R (Homo sapiens, UniProt Q01726)
Construct: endogenous in cells
protocol-description: MCR agonist measurement (cAMP measurement), human MC1R agonist activity in human melanoma cell line HBL
condition-notes: HBL cells, 37° C. for 30 minutes, intracellular cAMP by fluorescence method
EC50 strictly under 0.02 µM means Met; at 0.02 µM or over means Not met.

Prompt: Hi there! Is EC50 for COC[C@H]1CN(C(=O)[C@]2(F)CN(C3CCCC3)C[C@H]2c2ccc(OC)cc2)C[C@@H]1c1ccc(C(F)(F)F)cc1N1CCC(C(=O)N(C)C)CC1 [Example 248] below 0.02 µM, do you know?
Completion: Met

Prompt: Please check: EC50 for COC[C@@H]1C[C@@H](c2ccc(C(F)(F)F)cc2N2CCC(C(=O)O)CC2)CN1C(=O)[C@]1(F)CN([C@H]2CC[C@H](C#N)CC2)C[C@H]1c1ccc(OC)cc1 [Example 143] , strictly under 0.02 µM or not?
Completion: Met

Prompt: Confirm or reject: EC50 of COC[C@H]1CN(C(=O)[C@]2(F)CN(C3CCOCC3)C[C@H]2c2ccc(OC)cc2)C[C@@H]1c1ccc(C(F)(F)F)cc1N1CCC(c2nnn[nH]2)CC1.Cl.Cl [Example 279, dihydrochloride] lies strictly below 0.02 µM
Completion: Not met

Prompt: Does the reported EC50 of COc1ccc([C@@H]2CN(C3CCCC3)C[C@@]2(F)C(=O)N2C[C@H](c3ccc(C(F)(F)F)cc3N3CCC(C(=O)O)CC3)C[C@H]2CF)cc1 [Example 299] stay below 0.02 µM?
Completion: Met

Prompt: Is EC50 strictly under 0.02 µM for the entry COC[C@@H]1C[C@@H](c2ccc(C(F)(F)F)cc2N2CCC(C(=O)O)CC2)CN1C(=O)[C@]1(F)CN(C2CCC2)C[C@H]1c1ccc(OC)cc1 [Example 139] ?
Completion: Met

Prompt: # check: EC50 < 0.02 µM for COc1ccc([C@@H]2CN(C3CCCC3)C[C@@]2(F)C(=O)N2CCCC(c3ccc(C(F)(F)F)cc3N3CCC(C(=O)O)CC3)C2)cc1 (single isomer, unassigned) [Example 292]
Completion: Not met

Prompt: Bench note: check whether COc1ccc([C@@H]2CN(C(C)(C)C)C[C@@]2(F)C(=O)N2CCC(c3ccc(C(F)(F)F)cc3N3CCC(N(C)C)CC3)CC2)cc1 [Example 205] shows EC50 below 0.02 µM
Completion: Not met

Prompt: Item COc1ccc([C@@H]2CN(C(C)(C)C)C[C@@]2(F)C(=O)N2CCC(c3ccc(C(F)(F)F)cc3N3CCN(C(C)=O)CC3)CC2)cc1.Cl.Cl [Example 282, dihydrochloride] : EC50 beneath 0.02 µM, strictly?
Completion: Not met

Prompt: State whether 0.02 µM exceeds EC50 recorded for COC[C@H]1CN(C(=O)[C@]2(OC)CN(C3CCCC3)C[C@H]2c2ccc(OC)cc2)C[C@@H]1c1ccc(C(F)(F)F)cc1N1CCC(C(=O)O)CC1 [Example 125] .
Completion: Not met

Prompt: I wonder whether COc1ccc([C@@H]2CN(C3CCOC3)C[C@@]2(F)C(=O)N2CCC(c3ccc(C(F)(F)F)cc3N3CCC(C(=O)O)CC3)CC2)cc1 (some centres unmarked) [Example 290] has EC50 below 0.02 µM. Can you tell?
Completion: Not met
